assay: yeast display, Sf9 membrane polyspecificity reagent, FACS + sequencing; frameworks hold sequencing errors
measure-name: polyreactivity (PSR sort gate)

Please review the entries below; each comes with its answer.
residue-string	polyreactivity (PSR sort gate)
QVQLVESGGGLVQAGGSLRLSCAASGSIFHNYDMGLYRQAPGKEREMVADISRGGDTNYADSVKGRFTISRDNAKNTVYLQLNSLKPEDTAVYYCNATYWILDSPWWRETFAYWGQGTQVTVSS	low polyreactivity
QVQLVESGGGLVQAGGSLRLSCAASGRIFWYNAMGWYRQAPGKERELVAAISSGGSTSYADSVKGRFTISRDNAKNTVYLQMNSLKPEDTAVYYCAKDDERKQGQYPPYDSWGQGTQVTVSS	low polyreactivity
QVQLVESGGGLVQAGGSLRLSCAGSGFTFGYYAMGWSRPAPGKERELVAAMSWNGGRTYYADSVKGRFTISRDNAKNTVYLQLNSLKPEDTAVYSCAADYRFYSPTKYSYDDWGQGTQVTVSS	high polyreactivity
QVQLVESGGGLVQAGGSLRLSCAASGSIFHRYAMGWYRQAPGKERELVAAISRRGGSTYYADSVKGRFTISRDNAKNTVYLQMNSLIPVDTAVYYCNASLAGSSGRNRFEYWGQGTQVTVSS	high polyreactivity
QVQLVESGGGLVQAGGSLRLSCAASGFIFGTYAMGWYRHAPGKERELVAAISVGGGSTYYADSVKGRFTISRDNAKNTVYLQMNSLKPEDTAVYYCAAVQLFQKHQITYVANEYWGQGTQVTVSS	low polyreactivity

Now examine the next entry.
INPUT: Form field: reported polyreactivity (PSR sort gate) of QVQLVESGGGLVQAGGSLRLSCAASGSTFYFYAMGGYRQAPGKERELVAVISSGGRTYYADSVKGRFTISRDNAKNTVYLQMNSLKPEDTAVYYCAASWPSSLTYYYWGQGTQVTVSS
OUTPUT: low polyreactivity

====

assay: yeast display, Sf9 membrane polyspecificity reagent, FACS + sequencing; frameworks hold sequencing errors
measure-name: polyreactivity (PSR sort gate)

residue-string	polyreactivity (PSR sort gate)
QLQLVESGACLVQAGGSLRLSCAASGRIFTSYSMGWYRHAPGKEREMVAAINRGADTYYADSVKGRFTISRDNAKNTVYLQMNSVKPEDNAVYYCNAADAVSDYPDFQIYDYWGQGTQVTVSS	low polyreactivity
QVQLVESGGGLVQAGGSLRLSCSAYGSILWYNAMGWYRQAPGKERELVAAINRGGSTNYADSVKGRFTISRDNAKNTVYLQMNSLKPEDTAVYYCAADRLLVSAGGVQFDYWGQGTQVTVSS	low polyreactivity
QVQLVESGGGLVQAGGSLRLSCAASGSIFDEYAMGWYRQAPGKERELVAVISTSGSTYYADSVKGRFTISRDNAKNPVYLQMNCLKPEDTGVYSSNAAIYTSSYRSYDYWGQGTQVTVTS	low polyreactivity
QVQLVESVGGLVQAGGILRLSCAASGRTFTLNAMGWYRQAPGKERELVATISRRGGSTYYADSVKGRFTISRDNAKNTVYLQMISLKPEDTAVYDCNVDRLGKRYDNWGQGSQVTVSS	low polyreactivity
QVQLVESGGGLVQAGGSLRLSCAASGSTFEYNAMGWYRQAPGKERELVASSTNYADSVKGRFTISRDNAKNTVYLQMNSLKPEVTAVYYCAAYQDYVYSESLFSVSARMYYWGQGTQVTVSS	low polyreactivity

INPUT: Recorded polyreactivity (PSR sort gate) for QVQLVESGGGLVQAGGSLRLSCAASGSTFGYYTMGWYRQAHGKERELVAAISWGCGSTYYADSVKGRFTISRDNAKNTVYLQMNSLIPEDTAVYYCARTPVTSYKDDFYYWGQGTQVTVSS , please?
OUTPUT: low polyreactivity

INPUT: Quick one: polyreactivity (PSR sort gate) of QVQLVESGGCLVQAGGSLRLSCAASGRIFESNAMGWYRQAPGKERELVAAISVNGASTSYADSVKGRFTISRDNAKNTVYLQMNSLKPEDTAVYYCAARRGKGYYYWGQGTQVTVSS ?
OUTPUT: high polyreactivity

INPUT: Query (sequence): QVQLVESGGGLVQAGGSLRLSCAASGSIFSFYTMGWYRQAPGKERELVATISWRSGSTYYADSVKGRFTISRDNAKNTVYLQMNSLKPEDTAVYYCARSTSRYYYWGQGTQVTVSS ; field requested: polyreactivity (PSR sort gate)
OUTPUT: high polyreactivity

INPUT: # lookup: polyreactivity (PSR sort gate) of QVQLVESGGGLVHAGGSLRLSCAASGRTFGIYTMGWYRQAPGKERELVASTYYADSVKGRFTISRDNAKNTVYLQMNSLKPEDTAVYYCNVERLKKSQVWYGYPNDYWGQGTQVTVSS
OUTPUT: low polyreactivity

INPUT: Consider the sequence QVQLVESGGGLVQAGGILRLSCSASGRIFQFYAMGWYRQAPGKERELVAGISWSGGSTNYADSVKGRFTISRDNAKNTVYLQMNSLKPEDSAVYYCNVDLYNWRGDSTGYDYWGQGTQVTVSS and give its measured polyreactivity (PSR sort gate).
OUTPUT: low polyreactivity

INPUT: Name the reported polyreactivity (PSR sort gate) value associated with the sequence QVQLVESGGGLVQAGGSLRLSCAASGSTFRLYAMGWYRQAPGKERELVASITTGGSTYYADSVKGRFTISRDNAKNTVYLQMNSLKPEDTAVYYCAAEEYWEMDYWGQGTQVTVSS
OUTPUT: low polyreactivity

INPUT: Requested read-out: polyreactivity (PSR sort gate). Entry: QVQLVESGGGLVQAGGSLRLSCAASGRIFATNAMGWYREAPGKERELVATITRSAGRTYYADSVKGRFTISRDNAKNSVYLQMNSLKPEDTAVYYCAASYWDTEPGYREYDYWGQGTQVTVSS
OUTPUT: low polyreactivity

INPUT: # query: polyreactivity (PSR sort gate) of entry QVQLVESGGGLVQAGGSLRLSCAASGSIFYQYAMGWYRQAPGKERELVARITWSSGSTYYADSVKGRFTISRDNAKNTVYLQMNSLKPEDTAVYYCNVVYTGTSYIYYYWGQGTQVTVSS
OUTPUT: high polyreactivity
